Target: UniProt P19793
Sequence (P19793 whole entry): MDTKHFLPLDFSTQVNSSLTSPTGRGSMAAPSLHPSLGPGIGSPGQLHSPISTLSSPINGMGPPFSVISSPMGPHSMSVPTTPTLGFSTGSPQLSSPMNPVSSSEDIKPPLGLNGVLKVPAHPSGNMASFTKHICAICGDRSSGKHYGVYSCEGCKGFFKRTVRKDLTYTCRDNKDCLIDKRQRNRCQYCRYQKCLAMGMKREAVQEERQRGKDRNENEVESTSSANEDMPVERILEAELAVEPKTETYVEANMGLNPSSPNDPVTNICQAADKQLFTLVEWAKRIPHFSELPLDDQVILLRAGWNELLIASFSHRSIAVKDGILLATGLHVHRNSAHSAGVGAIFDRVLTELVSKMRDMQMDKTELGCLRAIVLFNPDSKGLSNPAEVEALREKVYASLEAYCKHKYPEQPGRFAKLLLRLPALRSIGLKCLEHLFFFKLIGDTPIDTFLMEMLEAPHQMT
Experiment: Effective concentration for Retinoid X receptor alpha activity in CV-1 cells
Type: functional, cell-based
pEC50: −log10 of the molar value.

# MOLECULE, VALUE_QUALIFIER, pEC50
measured = [
    ("CC1(C)CCC(C)(C)c2cc(C3CCCc4oc(/C=C/C(=O)O)cc43)ccc21 (single isomer, unassigned)", "=", 7.40),
    ("CC1(C)CCC(C)(C)c2cc(C3CCCc4oc(/C=C/C(=O)O)cc43)ccc21 (racemic)", "=", 8.52),
    ("CC1(C)CCC(C)(C)c2cc(C3CCCc4oc(/C=C/C(=O)O)cc43)ccc21 (stereo in doubt; 60)", "=", 7.01),
    ("Cc1oc(/C=C/C(=O)O)cc1Cc1ccc2c(c1)C(C)(C)CCC2(C)C", "=", 6.97),
    ("CC1(C)CCC(C)(C)c2cc(C3CCCc4sc(CCC(=O)O)cc43)ccc21 (centres undefined)", "=", 7.01),
    ("CC1(C)CCC(C)(C)c2cc(C3CCCc4oc(C(=O)O)cc43)ccc21 (centres undefined)", "<", 5.00),
    ("Cc1cc2c(cc1C1CCCc3oc(/C=C/C(=O)O)cc31)C(C)(C)CCC2(C)C (centres undefined)", "=", 7.54),
    ("CC1(C)CCC(C)(C)c2cc(C3CCCc4oc(/C=C/C(=O)O)nc43)ccc21 (centres undefined)", "=", 7.38),
    ("CC1(C)CCC(C)(C)c2cc(C3CCCc4oc(/C=C5/SC(=O)NC5=O)cc43)ccc21 (centres undefined)", "=", 8.40),
]
